In this section we review reported inhibition values for a set of molecules.
- target.under.test: Glucose transporter (Leishmania mexicana)
- method: ST_JUDE_LEISH: Cytotoxicity at 2uM final concentration against transgenic Leishmania Mexicana promastigotes LmGT2 that are glucose transport deficient and complemented with the L. Mexicana glucose transporter 2. Activity is measured by DNA content using SYBR green in vitro
- Type: functional
observed.property: inhibition (%)

>>> measurement("Cc1ccc2c(c1[N+](=O)[O-])N=NCC2Oc1ccccc1 (configuration not stated)")
10.6
>>> measurement("O=C(CCc1c[nH]cn1)Nc1cccc(-c2ccc(-c3nc4cc(F)ccc4[nH]3)s2)c1")
9.84
>>> measurement("COc1ccc(-c2cccc(NC(=O)c3cccc(C#N)c3)c2)cc1CNC(C)C")
5.03
>>> measurement("CCCN1CCN(c2ccc(NS(=O)(=O)c3ccc(C(=O)Nc4ccc(Cl)cc4)cc3)cc2)CC1")
-2.28
>>> measurement("CN1CCN(CC2(Nc3nccc(NCCc4cn(C)c5ccccc45)n3)CCCCC2)CC1")
-1.09
>>> measurement("CCC(C)(C)NC(=O)C(c1cccc(OC)c1)N(C(=O)CNC(=O)c1cccs1)c1ccc2c(c1)OCCO2 (configuration not stated)")
6.92
>>> measurement("CN1CCN(CC(=O)Nc2cccc(-c3cccc(-c4nc5ccccc5[nH]4)c3)c2)CC1")
-3.47
>>> measurement("COc1ccc(NC(=O)/C=C/c2ccc(Cl)c(C(F)(F)F)c2)cc1OCCN(C(C)C)C(C)C")
5.51
>>> measurement("CCCCCCCN1CCC(CC(=O)Nc2ccnc3ccc(OC)cc23)C(CC)C1 (configuration not stated)")
-0.31
>>> measurement("CCC(=O)N[C@@H]1CN[C@@H](C#Cc2cc3c(Nc4ccc(OCc5cccc(F)c5)c(Cl)c4)ncnc3s2)C1")
1.72
>>> measurement("C[C@@H](C(=O)N1CCOCC1)N1CC[C@H](NS(=O)(=O)c2ccc3ccnc(N)c3c2)C1=O")
-4.28
>>> measurement("CCC(C(=O)Nc1ccccc1)n1nc(-c2ccc(C)c(S(=O)(=O)N3CCCCC3)c2)ccc1=O (configuration not stated)")
4.74

* * *

- target.under.test: Hexose transporter 1 (Plasmodium falciparum) (UniProt O97467)
- method: ST_JUDE_LEISH: Cytotoxicity at 2uM final concentration against transgenic Leishmania Mexicana promastigotes LmPfHT that are glucose transport deficient and complemented with the Plasmodium falciparum hexose transporter. Activity is measured by DNA content using SYBR green in vitro
- Assay type: functional
observed.property: inhibition (%)

>>> measurement("O=C(NC1CCN(Cc2cccc(C(F)(F)F)c2)CC1)c1ccc(-c2cccc(C(F)(F)F)c2)s1")
3.03
>>> measurement("C[C@@H](COc1ccc(-c2ccccc2)cc1)CON1C(N)=NC(N)=NC1(C)C")
76.5
>>> measurement("COc1cccc(C(=O)C2CC2CN(C)CCC(O)c2ccc(Cl)c(Cl)c2)c1 (stereo not drawn)")
3.48

* * *

- target.under.test: Hexose transporter 1 (Plasmodium falciparum) (UniProt O97467)
- method: ST_JUDE_LEISH: Cytotoxicity at 2uM final concentration against transgenic Leishmania Mexicana promastigotes LmPfHT that are glucose transport deficient and complemented with the Plasmodium falciparum hexose transporter. Activity is measured by DNA content using SYBR green in vitro
- Format: functional
observed.property: inhibition (%)

>>> measurement("CCc1ccc(C2CCN(CCCCNC(=O)c3ccc(-c4ccc(Cl)cc4)cc3)CC2)c(O)c1")
2.44
>>> measurement("COCCNCc1ncsc1-c1ccc2c(Nc3cc(O)ccc3C)ccnc2c1")
0.61
>>> measurement("COc1c(C2CCN(CCCCNC(=O)c3ccc(-c4ccc(C#N)cc4)cc3)CC2)cc(Cl)c2c1CCCC2")
2.86
>>> measurement("CC1CCN(c2nc(C(=O)Nc3cccc4c3CCCC4)c(C(C)C)s2)CC1")
4.73

* * *

In this section we review reported inhibition values for a set of compounds.
- target.under.test: Glucose transporter (Leishmania mexicana) (UniProt O61059)
- method: ST_JUDE_LEISH: Cytotoxicity at 2uM final concentration against transgenic Leishmania Mexicana promastigotes LmGT2 that are glucose transport deficient and complemented with the L. Mexicana glucose transporter 2. Activity is measured by DNA content using SYBR green in vitro
- Assay type: functional
observed.property: inhibition (%)

>>> measurement("Cc1cc(=NN=CC=Cc2ccccc2)c2ccc(F)cc2[nH]1")
-0.62
>>> measurement("Cc1ccccc1C1CCN(C2CCC(NC(=O)/C=C/c3cccc(F)c3)CC2)CC1 (stereo not given)")
7.51
>>> measurement("COc1cc2nc(N3CCC(CNC(=O)c4ccc(OC(F)(F)F)cc4)CC3)nc(N)c2cc1OC")
0.16
>>> measurement("CCNc1cc(C(=O)N[C@@H](Cc2ccccc2)[C@H](O)CNC(C)C)cc(N2CC(c3ccccc3)CCS2(=O)=O)c1 (stereo not given in full)")
4.05
>>> measurement("Cc1[nH]c(C)c(-c2ccc(-c3ccc(OCC(F)(F)F)cc3)nc2)c(=O)c1Cl")
6.06
>>> measurement("CCN(CCCN1CCCCC1)c1cc(C)nc(Nc2cc(C(F)(F)F)ccc2C)n1")
0
>>> measurement("CC(=O)c1ccc(NC(=O)Nc2ccc3nccc(N4CCN(C)CC4)c3c2)cc1")
1.46
>>> measurement("CCCCCN1CCCC1CNS(=O)(=O)c1ccc(C(=O)Nc2cccc(C(F)(F)F)c2)cc1 (stereo not given)")
0.19
>>> measurement("Cc1nnc2c(NC(=O)NC3CCCC3)cc3ccc(-c4cccc(CN5CCN(C)CC5)c4)cc3n12")
5.53
>>> measurement("CC(C)(C)CNc1noc(-c2sccc2Br)n1")
-0.7

* * *

- target.under.test: Glucose transporter (Leishmania mexicana)
- method: ST_JUDE_LEISH: Cytotoxicity at 2uM final concentration against transgenic Leishmania Mexicana promastigotes LmGT2 that are glucose transport deficient and complemented with the L. Mexicana glucose transporter 2. Activity is measured by DNA content using SYBR green in vitro
- Type: functional
In this section we review reported inhibition values for a set of compounds.
observed.property: inhibition (%)

>>> measurement("CC(=O)Nc1sc(C)c(C)c1CN1CCc2ccccc2C1")
-1.3
>>> measurement("COc1cccc(NC(=O)Nc2c(-c3cccc(C(F)(F)F)c3)c(C(F)(F)F)nn2C)c1")
0.37
>>> measurement("O=C(/C=C/c1ccc(Cl)c(Cl)c1)NCCCCCN1CCC(NC(=O)Nc2ccc(F)cc2F)CC1")
1.33
>>> measurement("COc1ccc(O)c(Cc2cnc3nc(N)[nH]c(=O)c3c2C)c1")
4.01
>>> measurement("O=[N+]([O-])c1ccc2nc(Nc3ccc(Cl)c(Cl)c3)c(Nc3ccc(Cl)c(Cl)c3)nc2c1")
1.69
>>> measurement("COc1ccc(S(=O)(=O)N2CCOCC2)cc1NC(=O)c1cc2ccccc2o1")
1.69
>>> measurement("CC(=O)Oc1c(C2CCN(CCCCNC(=O)c3ccc(NC(=O)c4ccc(Cl)cc4)cc3)CC2)ccc2ccccc12")
4.42

* * *

- target.under.test: Hexose transporter 1 (Plasmodium falciparum) (UniProt O97467)
- method: ST_JUDE_LEISH: Cytotoxicity at 2uM final concentration against transgenic Leishmania Mexicana promastigotes LmPfHT that are glucose transport deficient and complemented with the Plasmodium falciparum hexose transporter. Activity is measured by DNA content using SYBR green in vitro
- Format: functional
observed.property: inhibition (%)

>>> measurement("COc1ccc(NC(=O)N2CCCN(CCCCCNC(=O)/C=C/c3ccc(Cl)cc3)CC2)cc1Cl")
2.96
>>> measurement("Cc1nc(C(C)Nc2nncc(-c3ccc(Cl)cc3)n2)cs1 (stereo not given)")
0.17
>>> measurement("CC(=O)c1ccc(NC(=O)CSc2nc(-c3ccccc3Cl)ns2)cc1")
10.3
>>> measurement("Cc1c(C)n(C2CCCCC2)c2ncnc(OC3CCN(CC(=O)NC4CC4)CC3)c12")
-3.58
>>> measurement("Cc1cc(N[C@@H](CC(C)C)C(=O)Nc2ccccc2)nc(NCCc2ccc(F)cc2)n1")
1.97
>>> measurement("CCCCc1ccc(C(=O)NC2CCN(C[C@H](O)c3ccnc4ccc(OC)cc34)CC2)cc1")
65.3
>>> measurement("Cc1ccc2nc(C)cc(NC(=O)Nc3ccc(N(C)C)cc3)c2c1")
5.69
>>> measurement("Cn1cnc2c(Nc3ccncc3)nc(-c3ccc(OC(F)(F)F)cc3)nc21")
1.84
>>> measurement("Cc1noc(C)c1-c1cccc(CNCc2cccc(-c3ccc(-c4nc5ccccc5[nH]4)cc3)c2)c1")
-1.28
>>> measurement("CCN(CC)CCN(Cc1ccc(-c2ccc(C(F)(F)F)cc2)cc1)C(=O)Cn1c(CCc2cc(F)cc(F)c2F)nc(=O)c2ccccc21")
0.76
>>> measurement("Cc1cc(C(=O)NC2CCN(CC3(c4ccccc4)CCCCC3)CC2)on1")
0.59
>>> measurement("COC(=O)[C@@H](NC(=O)[C@H](Cc1ccc(OC)c(OC)c1)Nc1ccc(C#N)c2ccccc12)c1ccc(O)cc1")
16.6
>>> measurement("O=C(CCc1cccc(O)c1)NCC(NCCCNc1cc(=O)c2ccccc2[nH]1)c1cc(Br)cc(Br)c1 (stereo not given)")
5.63
>>> measurement("CN1CCCN(Cc2ccc(-c3cccc(NC(=O)c4ccc(F)cc4)c3)cc2)CC1")
13.8
>>> measurement("Nc1ncc(OC2CCCCC2)c(N)n1")
0.87
